assay.remarks: Normal rat biodistribution
Format: in vivo
applied.conditions: 2 min post-injection, i.v., male Wistar rats, Mean±SD n=3
# % ID GI Tract >= 10 % ID gives satisfied, anything below gives not satisfied

>>> answer_label("NCCCCCNS(=O)(=O)c1ccc(C(=O)NCCCNC(=O)c2ccc(NN)nc2)cc1")
"not satisfied"
>>> answer_label("CC(=NO)C(C)(C)NCCN(CCNC(=O)C1CCC(CNC(=O)c2ccc(S(=O)(=O)NCCCCCN)cc2)CC1)CCNC(C)(C)C(C)=NO (stereo not shown)")
"not satisfied"
>>> answer_label("CC(CNCc1ccccc1O)(CNCc1ccccc1O)CNC(=O)c1ccc(S(=O)(=O)NCCCCCN)cc1")
"not satisfied"
>>> answer_label("CC(=NO)C(C)(C)NCC(C)(CNC(=O)CCCCCN)CNC(C)(C)C(C)=NO (stereo not shown)")
"satisfied"

Here's the next entry for you.
q: Does the reported % ID GI Tract for "CC(=NO)C(C)(C)NCCN(CCNC(=O)c1ccc(S(=O)(=O)NCCCCCN)cc1)CCNC(C)(C)C(C)=NO" fall at or above the 10 % ID mark?
a: not satisfied
